Please go through the items and note down their FACS-Seq fitted mean (log10).
B1: library; a variant is named by its letters at N, in order (parent)
chain: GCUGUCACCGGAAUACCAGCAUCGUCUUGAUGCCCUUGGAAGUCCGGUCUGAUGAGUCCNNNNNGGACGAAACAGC

variants of: B1; assay: FACS-Seq fitted mean relative fluorescence mCherry/BFP with ligand (log10 relative fluorescence); ligand concentration (+) FACS-Seq: 1 mM; higher = higher reporter protein expression; conditions: HEK293T, ligand present: yes
One number for each entry.

In the examples that follow, each entry is paired with its recorded FACS-Seq fitted mean (log10).
ACAAG :: 0.889
GCCCU :: 0.918
AUGGC :: 0.903

Give FACS-Seq fitted mean (log10) for each listed item.
1. CCGAC
2. UGCGC
3. GACCU
4. CAAAC
5. ACUAU
6. AACCA
7. CAUAU
8. GACGU

1: 1.06; 2: 0.522; 3: 1.03; 4: 0.833; 5: 0.461; 6: 0.908; 7: 0.362; 8: 1.03

Give FACS-Seq fitted mean (log10) for each listed item.
1. CCACU
2. UGCCC
3. UGGUC
4. UCCCU
5. UUGGA

1: 0.818; 2: 0.875; 3: 0.356; 4: 1.03; 5: 0.494

Give FACS-Seq fitted mean (log10) for each listed item.
1. AGCAC
2. AAACG
3. UAUCG
4. AACAA
5. UCCAU
6. CAUCC

1. 0.669
2. 0.652
3. 0.934
4. 0.704
5. 1.05
6. 1.16

Request the reported FACS-Seq fitted mean (log10) associated with `CCCAC` 0.711
